# Tested on: zebrafish larvae
# protocol: Baseline activity / baseline exposure (90 min continuous light), zebrafish larvae
# Format: in vivo
# Set-up: key: +: statistically significant increase; −−: statistically significant decrease
# condition description: High
quantity kind: Baseline Exposure

// known answers, use as guide
[[record]]
compound = "COc1cc(/C=C/C(=O)CC(=O)/C=C/c2ccc(O)c(OC)c2)ccc1O"
quantity_kind = "Baseline Exposure"
result = "+"

[[record]]
compound = "C=C1CC/C=C(\\C)CC[C@@H]2[C@@H]1CC2(C)C"
quantity_kind = "Baseline Exposure"
result = "+"

[[record]]
compound = "O=C(/C=C/C=C/c1ccc2c(c1)OCO2)N1CCCCC1"
quantity_kind = "Baseline Exposure"
result = "+"

[[record]]
compound = "COc1ccc(/C=C/c2cc(OC)cc(=O)o2)cc1"
quantity_kind = "Baseline Exposure"
result = "+"

[[record]]
compound = "C=C(C)[C@@H]1CCC(C)=C[C@H]1c1c(O)cc(CCCCC)cc1O [cannabidiol (CBD), cannabidiol, reference compound]"
quantity_kind = "Baseline Exposure"
result = "−−"

[[record]]
compound = "COC1=CC(=O)O[C@@H](CCc2ccc3c(c2)OCO3)C1 [(+)-dihydro methysticin]"
quantity_kind = "Baseline Exposure"
result = "−−"


// query Specify Baseline Exposure for COC1=CC(=O)O[C@@H](/C=C/c2ccc3c(c2)OCO3)C1 [R-(+)-methysticin] and stop.
// result −−

// query Return reported Baseline Exposure. Input compound: "C=CCc1ccc(OC)cc1"
// result −−

// query For the compound COC1=CC(=O)O[C@@H](CCc2ccccc2)C1 [(S)-(+)-7,8-dihydrokavain] , give its reported Baseline Exposure.
// result −−

// query Quickly give me recorded Baseline Exposure for COc1c(O)cc(O)c2c(=O)cc(-c3ccccc3)oc12 [Wogonin (hydrate), wogonin]
// result +

// query Tell me measured Baseline Exposure for "O=c1cc(-c2ccccc2)oc2cc(O)c(O)c(O)c12" please.
// result −−
